Target or system: Yer064c (UniProt P40041)
Sequence: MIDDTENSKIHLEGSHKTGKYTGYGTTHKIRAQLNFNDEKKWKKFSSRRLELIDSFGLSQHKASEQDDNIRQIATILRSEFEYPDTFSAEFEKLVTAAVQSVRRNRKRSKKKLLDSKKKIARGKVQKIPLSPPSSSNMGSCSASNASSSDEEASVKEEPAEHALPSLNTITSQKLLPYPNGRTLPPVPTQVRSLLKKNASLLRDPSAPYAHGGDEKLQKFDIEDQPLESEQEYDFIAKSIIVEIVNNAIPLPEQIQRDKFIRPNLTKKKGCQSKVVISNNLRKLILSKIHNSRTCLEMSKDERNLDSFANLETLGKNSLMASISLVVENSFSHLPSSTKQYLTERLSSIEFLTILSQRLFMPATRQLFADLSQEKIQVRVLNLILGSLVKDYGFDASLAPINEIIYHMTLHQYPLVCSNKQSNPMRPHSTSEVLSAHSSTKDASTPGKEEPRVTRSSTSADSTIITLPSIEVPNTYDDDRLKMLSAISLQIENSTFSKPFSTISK
Assay summary: PBM E-score (8-mer binding enrichment) (E-score (-0.5 to 0.5)); higher = stronger / more preferred TF binding
Test context: protein concentration: 200 nM; construct: GST-full length
The full ranking holds about 33,000 sequences; the median of “E-score (-0.5 to 0.5)” is about -0.036, and the highest 2% start at about 0.37. This is one part of a sample in which the highest values are shown more often than they occur.
Classes are defined on PBM E-score with ranges low end: < -0.02; middle: ≥ -0.02 and < 0.1; high end: ≥ 0.1

Check out these entries, answers already filled in.
CGAGGCTA :: low end
AGTCTTAC :: high end

# input Which PBM E-score category applies to CGCTCATC here?
# output middle

# input // bin(item) where item = CTTGACTC
# output high end
